Provide the recorded IC50 for the entries that follow.
# targetEntity: IDO1 in Hela cancer cells (Homo sapiens, UniProt P14902)
# Construct: endogenous in cells
# Sequence (P14902 whole entry): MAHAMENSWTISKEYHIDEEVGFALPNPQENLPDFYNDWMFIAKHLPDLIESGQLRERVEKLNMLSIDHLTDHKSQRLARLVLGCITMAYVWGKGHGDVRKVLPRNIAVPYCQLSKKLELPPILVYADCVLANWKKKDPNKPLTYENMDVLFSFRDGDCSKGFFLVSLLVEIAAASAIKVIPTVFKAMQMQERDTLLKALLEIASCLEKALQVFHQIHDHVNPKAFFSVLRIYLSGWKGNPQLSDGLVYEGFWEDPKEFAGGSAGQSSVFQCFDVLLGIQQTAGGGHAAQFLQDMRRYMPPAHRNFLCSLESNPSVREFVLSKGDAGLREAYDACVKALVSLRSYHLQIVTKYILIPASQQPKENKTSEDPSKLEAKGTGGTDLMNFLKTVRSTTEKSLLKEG
# measurementProtocol: IDO1 Cellular Assay (kynurenine production in IFN-γ stimulated Hela cancer cells)
# conditionSet: human IFN-γ 50 ng/mL, 48 hours incubation, kynurenine at 490 nm

Data point: O[C@@]1(c2cc(Cl)cc3cn[nH]c23)C[C@H]2CN(c3ccncc3)C[C@H]2C1 ; IC50 = > 5 µM

For O=C(N[C@H]1[C@@H]2C[C@@](O)(c3cc(Cl)cc4[nH]ncc34)C[C@@H]21)c1cncc(C(F)(F)F)c1 the compound record lists IC50 as ≤ 0.5 µM

Form: compound = CNS(=O)(=O)N[C@H]1[C@@H]2C[C@@](O)(c3cc(C(F)(F)F)cc4[nH]ncc34)C[C@@H]21 ; IC50 = ≤ 0.5 µM

get_value(item= O=C(N[C@H]1[C@@H]2C[C@@](O)(c3cc(Cl)cc4[nH]ncc34)C[C@@H]21)c1ccnc(OC(F)(F)F)c1 , readout=IC50) returns ≤ 0.5 µM

Item: N#Cc1ccc(S(=O)(=O)N2C[C@@H]3C[C@@](O)(c4cc(Cl)cc5[nH]ncc45)C[C@@H]3C2)cc1 | IC50: > 5 µM

compound CC(=O)N1C[C@@H]2CN(c3cc(C(F)(F)F)cn4cncc34)C[C@@H]2C1(C)C (racemic) , IC50 observed: > 5 µM
